assay: qHTS Assay for Lipid Storage Modulators (AID 1519); conditions: Drosophila S3 cells, BODIPY lipid droplet/cell ratio, laser cytometry; measured here: cell count channel max response; cells loaded with oleic acid
Records with an inconclusive call do not appear.
Field: max response. Provide a value for each of the compounds that follow.
Answers are plain numbers, in %.

As a guide, the following entries are already answered.
>>> val("COc1ccc(NC(=O)N2CC3(CCN(C(=O)c4c(C)noc4C)CC3)C2)cc1")
5.82
>>> val("COc1ncc2nc(-c3ccc(F)cc3)c(=O)n(C)c2n1")
17.8
>>> val("CCNc1ncc2nc(-c3cn(C)c4ccccc34)c(=O)n(-c3ccc(OC)cc3)c2n1")
20.6

Take each entry in turn and give its max response.
1. COc1ccc(C(=O)N2CCC3(CCCN(Cc4ccncc4)C3)CC2)cc1
2. COCCn1c(=O)c(C)nc2cnc(N3CCNCC3)nc21
3. COCC(=O)N1CCC2(CC1)CN(c1ccccn1)C2

Ans.
1: 2.99; 2: 4.65; 3: 1.59

---

Field: Potency. Provide a value for each of the molecules that follow.
assay: qHTS assay to identify inhibitors of the type 1 interferon - major histocompatibility complex class I in skeletal muscle: Counter screen cell viability and HiBit confirmation (AID 1347412); conditions: iHSKM muscle cells + IFN-b, HiBiT or CellTiter-Glo, 24 h; HiBiT; also: potency is read from the fitted curve at half-maximal effect; nearly all actives have a fitted effect of over 60% in size
Results filed as inconclusive are left out. Calls of active or inactive are those of the source. Calls follow the shape of the dose curve; as a rule, active = well fitted inhibition curve with a large enough effect; inconclusive = small, poorly fitted or top-dose-only effect; inactive = no such curve, though single readings can be large or run the other way.

>>> val("CN(C)Cc1ccc(S(=O)(=O)n2ccc(/C=C/C(=O)NO)c2)cc1")
"7.01 µM (active)"
>>> val("CN1CCN(c2ccc(Nc3ncc4cc(C#N)c(=O)n(C5CCCC5)c4n3)cc2)CC1")
"9.91 µM (active)"
>>> val("COC(=O)c1ccc([C@H]2c3[nH]c4ccccc4c3C[C@H](C(=O)OC)N2C(=O)CCl)cc1")
"0.496 µM (active)"
>>> val("CNc1nc(-c2ccc3c(N)n[nH]c3c2)cc(N2C[C@@H](C(=O)NC3CCCCC3)CC[C@H]2C)n1")
"31.3 µM (active)"
>>> val("COC1CCC(N2C(=O)CNc3ncc(-c4ccc(C(C)(C)O)nc4)nc32)CC1 (configuration not stated)")
"11.1 µM (active)"
>>> val("O=C(/C=C\\n1cnc(-c2cc(C(F)(F)F)cc(C(F)(F)F)c2)n1)NNc1cnccn1")
"0.625 µM (active)"

Lab note: next molecule to report on.
Qu. Consider the molecule `CO[C@@H]1[C@@H](O)[C@H](O)[C@@H](n2c3c(Cl)cccc3c3c4c(c5c6cccc(Cl)c6[nH]c5c32)C(=O)NC4=O)O[C@H]1CO` and give its measured Potency.
Ans. 4.97 µM (active)

---

assay: Vero-766 cells viability qHTS against the NCATS CANVASS Library: Counterscreen for Zika virus inhibition assay (AID 1347394); conditions: Vero 766 viability, CellTiter-Glo luminescence, 72 h; series mostly up to 46.1 µM; also: % is scaled to controls: 0 for no effect and ±100 for the full control effect; nearly all actives have a fitted effect of over 60% in size
Inconclusive results are not listed. Active and inactive are the calls of the source. Calls come from the whole dose curve; as a rule, active = well fitted cell-killing curve with a large enough effect; inconclusive = small, poorly fitted or top-dose-only effect; inactive = flat fitted curve, though single readings scatter.
Permitted responses: True for active, False for inactive

Take a look at these entries with their results.
>>> discretelabel("COC(=O)[C@@]1(C)CCC[C@]2(C)c3cc(OC)ccc3CC[C@@H]12")
"False"
>>> discretelabel("CCC(=O)N[C@@H](C[C@H](C)C(Cl)(Cl)Cl)C(=O)N1C(=O)C=C(OC)[C@@H]1C[C@H](C)CCl")
"False"
>>> discretelabel("C=C1CC[C@@H](Br)C(C)(C)[C@]12CC=C(C)C(=O)C2")
"False"
>>> discretelabel("O=C1OC(CCO)c2cccc(O)c21 (configuration not stated)")
"False"
>>> discretelabel("C/C(=C\\[C@@H](C)CC/C=C/CC/C=C/C(=O)O)[C@@H](O)[C@H](C)C(=O)CCCC1CC(=O)NC(=O)C1")
"False"
>>> discretelabel("CC[C@@H](c1cc(OC)c(OC)cc1OC)[C@H](C)[C@@H](/C(C)=C/c1cc(OC)c(OC)cc1OC)c1cc(OC)c(OC)cc1OC")
"False"
>>> discretelabel("CC1(C)CC[C@]2(CO)CC[C@]3(C)C(=CCC4[C@@]5(C)CC[C@H](O)C(C)(C)C5CC[C@]43C)C2C1 (some centres not stated)")
"False"
>>> discretelabel("C/C(=C\\[C@H](C)C(=O)CCCC1CC(=O)NC(=O)C1)[C@@H]1OC(=O)/C=C/CC/C=C/[C@H](O)[C@@H](O)[C@@H]1C")
"False"

Qu. How was C=CC(CCCCC)C1C(=O)NC(=O)C1C(=O)C1C2C(C)CC(C(=O)O)CC2CC1(O)C(=O)/C=C/C (configuration not stated) classified in this test?
Ans. False

Qu. How was C/C=C(/CO)C(=O)O[C@@H]1[C@H](O)[C@@H](C(=O)OC)O[C@@H]2C[C@H]3OC(n4cnc5c(N)ncnc54)[C@H](OC)[C@H]3O[C@@]12O (some centres not stated) classified in this test?
Ans. False

---

Field: activation. Provide a value for each of the compounds that follow.
biological target: Thyrotropin-releasing hormone receptor (Homo sapiens) (UniProt P34981); assay: qHTS for Small Molecule Agonists and Allosteric Enhancers of Human TRH Receptor: Validation Screen for Agonists (AID 493127); details: TRH receptor agonist cell assay; at 2 µM; stronger effect = higher value;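 also: intracellular calcium rise by fluo-8 fluorescence before TRH EC20 addition; 0% is about no effect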
Sequence (P34981 whole entry, looked up): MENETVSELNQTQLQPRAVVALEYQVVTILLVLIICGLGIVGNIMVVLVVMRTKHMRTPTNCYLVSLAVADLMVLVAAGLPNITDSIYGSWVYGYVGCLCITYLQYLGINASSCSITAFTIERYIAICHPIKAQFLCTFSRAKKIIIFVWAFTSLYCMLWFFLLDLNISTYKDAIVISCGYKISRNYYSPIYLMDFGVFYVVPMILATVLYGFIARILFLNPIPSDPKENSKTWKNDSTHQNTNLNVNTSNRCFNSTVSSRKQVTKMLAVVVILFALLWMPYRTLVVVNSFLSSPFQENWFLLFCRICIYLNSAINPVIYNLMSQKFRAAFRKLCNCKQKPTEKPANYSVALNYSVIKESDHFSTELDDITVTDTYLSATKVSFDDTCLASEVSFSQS
Numbers only, in %.

>>> val("NCCCCNS(=O)(=O)c1cccc2c(Cl)cccc12")
0.5

Take each entry in turn and give its activation.
1. CCCCC#Cc1nc(N)c2ncn([C@@H]3O[C@H](C(=O)NCC)[C@@H](O)[C@H]3O)c2n1
2. CC(C)C1NC(=O)[C@H](CCCCN)NC(=O)[C@@H](Cc2c[nH]c3ccccc23)NC(=O)[C@H](Cc2ccc(O)cc2)NC(=O)[C@H](C)N(C)C(=O)[C@H](Cc2ccccc2)NC1=O (stereo partly specified)

Ans.
[-0.438, -0.438]

---

assay: qHTS for differential inhibitors of proliferation of Plasmodium falciparum line HB3 (AID 1886); conditions: Plasmodium falciparum HB3 proliferation inhibition; series mostly up to 28.7 µM;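 also: parasites grown with compound for 72 h before SYBR Green readout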
Inconclusive results are not listed. The source made the active and inactive calls. The call rests on the fitted dose curve; in most records, active means well fitted curve in the direction sought with a large enough effect; inconclusive means small, poorly fitted or top-dose-only effect, or another doubt; inactive means no such curve, though single readings can be large or run the other way.
Permitted responses: active, inactive

Take a look at these entries with their results.
>>> discretelabel("CN1C2CC(OC(=O)C(CO)c3ccccc3)CC1C1OC12 (centres undefined)")
"inactive"
>>> discretelabel("OC[C@H]1O[C@@H](n2cnc3c(N[C@H]4CC5CCC4C5)ncnc32)[C@H](O)[C@@H]1O (some centres undefined)")
"inactive"
>>> discretelabel("Nc1ncnc2c1ncn2[C@@H]1O[C@H](CO)[C@H](O)[C@H]1O")
"inactive"

Qu. How was COc1cc(=O)n(C)c2c(OCC(O)C(C)(C)O)cccc12 (centres undefined) classified in this test?
Ans. inactive

Qu. How was `Nc1ncnc2c1nc(Sc1ccc(Cl)cc1)n2[C@H]1O[C@@H]2COP(=O)(O)O[C@H]2[C@@H]1O` classified in this test?
Ans. active

Qu. How was NCC1OC(O[C@@H]2[C@H](O)[C@@H](OC3C(O)C(N)CC(N)C3OC3OC(CO)C(O)C(O)C3N)O[C@@H]2CO)C(N)C(O)C1O (some centres undefined) classified in this test?
Ans. inactive

Qu. How was CN1C2CCC1CC(NC(=O)c1nn(C)c3ccccc13)C2 (centres undefined) classified in this test?
Ans. inactive

Qu. How was `CNC(=O)[C@H]1O[C@@H](n2cnc3c(NCc4ccc(N)cc4)ncnc32)[C@H](O)[C@H]1O` classified in this test?
Ans. inactive

Qu. How was NC(=S)NCCCC(N)C(=O)O (centres undefined) classified in this test?
Ans. inactive

---

Target: Glucocorticoid receptor (Homo sapiens)
Assay: GR-GFP Redistribution (AID 450); also: potency is read from the fitted curve at half-maximal effect
Details: U2OS GR-GFP nuclear translocation, laser cytometry, 2 h
Method: NIH Molecular Libraries Screening Centers Network [MLSCN] NIH Chemical Genomics Center [NCGC] […] GR-GFP U2OS cells were maintained in DMEM with Glutamax and high glucose, 1% v/v penicillin-streptomycin, and 0.5 mg/mL Geneticin. […] The plates were read by the Acumen Explorer using a 1 x 8 um scan of the whole well area. PI fluorescence triggered the collection of PI and GFP signals. […]
The source made the active and inactive calls.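 How the source made its calls: active means compounds whose dose series gives a full or clear partial fitted curve of increased nuclear translocation; inconclusive means weak partial curve or effect only at the top dose; inactive means no dose-dependent translocation response.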
Field: Potency. Provide a value for each of the molecules that follow.

As a guide, the following entries are already answered.
>>> val("CNc1ccnc(-c2ccccc2CN(C)C)n1")
"> 46 µM (inactive)"
>>> val("Cn1c(=O)cnc2cnc(Oc3ccccc3)nc21")
"> 9.22 µM (inactive)"
>>> val("CCCC(=O)NCCc1c2n(c3ccc(OC)cc13)Cc1ccccc1-2")
"> 46 µM (inactive)"
>>> val("O=c1cnc2cnc(N3CCOCC3)nc2n1CCc1ccccc1")
"> 9.22 µM (inactive)"
>>> val("COc1ccccc1-c1cc(NCc2ccccc2)ncn1")
"> 46 µM (inactive)"
>>> val("O=c1c(-c2cc(F)cc(F)c2)nc2cnc(N3CCOCC3)nc2n1C1CC1")
"> 9.22 µM (inactive)"
>>> val("Cc1cnc(CNc2ncncc2-c2c(C)noc2C)cn1")
"> 46 µM (inactive)"
>>> val("CN(Cc1ccco1)c1ncncc1-c1ccccc1Cl")
"> 46 µM (inactive)"
>>> val("COc1ccc(-n2c(=O)c(-c3cccs3)nc3cnc(N4CCOCC4)nc32)cc1")
"> 9.22 µM (inactive)"
>>> val("Cc1cccc(CNc2cc(-c3c(C)noc3C)ncn2)c1")
"> 46 µM (inactive)"

Take each entry in turn and give its Potency.
1. O=c1c(-c2ccc(F)cc2)nc2cnc(N3CCOCC3)nc2n1C[C@H]1CCCO1
2. COc1cccc(Cn2c(=O)c(C)nc3cnc(Nc4ccccc4)nc32)c1
3. O=c1cnc2cnc(Oc3cccc(Cl)c3)nc2n1Cc1ccc(F)cc1

Ans.
1. > 9.22 µM (inactive)
2. > 9.22 µM (inactive)
3. > 9.22 µM (inactive)

Take each entry in turn and give its Potency.
1. CC(=O)NCCNc1cc(-c2ccccc2C)ncn1
2. COc1ccc2[nH]cc(CCNc3ncncc3-c3ccc(N(C)C)cc3)c2c1
3. COc1ccc(-n2c(=O)c(-c3ccc(F)cc3)nc3cnc(N4CCOCC4)nc32)cc1
4. Cc1ccccc1-c1cc(NCc2ccccc2)ncn1
5. O=c1c(-c2cc(F)cc(F)c2)nc2cnc(N3CCNCC3)nc2n1-c1ccccc1
6. O=c1c(-c2ccc(F)cc2)nc2cnc(N3CCNCC3)nc2n1C1CC1
7. COCCn1c(=O)c(C)nc2cnc(Oc3ccc(OC)cc3)nc21
8. COc1ccc(-c2nc3cnc(Nc4ccccc4)nc3n(C[C@H]3CCCO3)c2=O)cc1

Ans.
> 46 µM (inactive)
> 46 µM (inactive)
> 9.22 µM (inactive)
> 46 µM (inactive)
> 9.22 µM (inactive)
> 9.22 µM (inactive)
> 9.22 µM (inactive)
> 9.22 µM (inactive)

Take each entry in turn and give its Potency.
1. CN(Cc1ccco1)c1ncncc1-c1cccc(C#N)c1
2. CN(C)Cc1ccccc1-c1nccc(N(C)C)n1
3. O=c1cnc2cncnc2n1Cc1ccccc1Cl
4. CN(C)c1ccc(-c2cc(-n3ccnc3)ncn2)cc1
5. COc1ccc(-n2c(=O)c(C)nc3cnc(N4CCNCC4)nc32)cc1

Ans.
> 46 µM (inactive)
> 46 µM (inactive)
> 9.22 µM (inactive)
> 46 µM (inactive)
> 9.22 µM (inactive)
